- Target Or Test System: Recombinant human FGFR1 (Homo sapiens)
- Sequence (P11362 22-822): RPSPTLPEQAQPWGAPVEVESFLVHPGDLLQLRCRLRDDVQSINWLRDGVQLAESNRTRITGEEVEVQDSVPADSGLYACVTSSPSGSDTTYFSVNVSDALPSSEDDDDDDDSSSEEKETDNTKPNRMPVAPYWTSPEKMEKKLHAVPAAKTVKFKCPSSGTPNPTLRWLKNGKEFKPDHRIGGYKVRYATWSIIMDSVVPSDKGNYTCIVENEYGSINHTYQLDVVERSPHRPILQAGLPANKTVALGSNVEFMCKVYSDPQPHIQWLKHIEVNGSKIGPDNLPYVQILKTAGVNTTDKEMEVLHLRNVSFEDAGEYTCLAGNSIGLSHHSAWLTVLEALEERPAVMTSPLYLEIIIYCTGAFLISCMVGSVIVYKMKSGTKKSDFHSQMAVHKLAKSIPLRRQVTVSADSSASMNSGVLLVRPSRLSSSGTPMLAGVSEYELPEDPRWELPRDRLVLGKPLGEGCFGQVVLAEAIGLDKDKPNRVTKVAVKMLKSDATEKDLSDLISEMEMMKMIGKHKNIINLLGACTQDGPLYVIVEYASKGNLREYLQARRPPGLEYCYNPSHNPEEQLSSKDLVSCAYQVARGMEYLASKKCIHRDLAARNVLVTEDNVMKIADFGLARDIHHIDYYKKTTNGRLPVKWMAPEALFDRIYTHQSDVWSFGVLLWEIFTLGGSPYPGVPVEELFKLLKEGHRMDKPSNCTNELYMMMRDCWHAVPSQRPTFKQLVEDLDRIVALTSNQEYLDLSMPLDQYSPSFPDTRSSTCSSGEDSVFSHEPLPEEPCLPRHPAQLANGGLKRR
- Protocol Notes: Transcreener Kinase Assay of FGFR1
- Type: biochemical
- Condition Info: read-out: FGFR1 (FP) IC50
So I've got a bunch of molecules here, and I need their IC50 values.
Numbers only, in nM.

These recorded examples may help you get a feel for the data.
CNC(=O)c1cc(COc2cnc(Nc3ccc(=O)n(C4CCCC4)c3)nc2)c(F)c(OC)c1 ... 66
CCN1CCN(c2ccc(Nc3ncc(CCc4cc(C(=O)NC)cc(OC)c4F)cn3)cc2OC)CC1 ... 7
CCN1CCN(c2ccc(Nc3ccc(CCc4cc(OC)cc(C(=O)NOC)c4)cn3)cc2)CC1 ... 9
CNC(=O)c1cc(CCc2cnc(Nc3ccc(NC[C@@H](C)N)cc3)nc2)c(Cl)c(OC)c1 ... 8
C#Cc1cccc(Nc2ncc(OCc3cc(C(=O)NC)cc(OC)c3F)cn2)c1 ... 24

Batch request: IC50 per item, same order as input.
1. CNC(=O)c1cc(COc2cnc(Nc3ccc(-n4nccn4)cc3)nc2)c(Cl)c(OC)c1
2. CNC(=O)c1cc(COc2cnc(Nc3ccc(OC)c(OC)c3)nc2)c(F)c(OC)c1
3. CNC(=O)c1cc(COc2cnc(Nc3ccc4c(c3)NCC4)nc2)c(F)c(OC)c1

Marked response:
1. 98
2. 25
3. 67

Exam item: GET /values?readout=IC50&item= CNC(=O)c1cc(COc2cnc(Nc3ccc(N4CCOCC4)c(OC)c3)nc2)c(F)c(OC)c1
Marked response: 26
